Target: Nav1.5 (Homo sapiens, UniProt Q14524)
Sequence (Q14524 whole entry): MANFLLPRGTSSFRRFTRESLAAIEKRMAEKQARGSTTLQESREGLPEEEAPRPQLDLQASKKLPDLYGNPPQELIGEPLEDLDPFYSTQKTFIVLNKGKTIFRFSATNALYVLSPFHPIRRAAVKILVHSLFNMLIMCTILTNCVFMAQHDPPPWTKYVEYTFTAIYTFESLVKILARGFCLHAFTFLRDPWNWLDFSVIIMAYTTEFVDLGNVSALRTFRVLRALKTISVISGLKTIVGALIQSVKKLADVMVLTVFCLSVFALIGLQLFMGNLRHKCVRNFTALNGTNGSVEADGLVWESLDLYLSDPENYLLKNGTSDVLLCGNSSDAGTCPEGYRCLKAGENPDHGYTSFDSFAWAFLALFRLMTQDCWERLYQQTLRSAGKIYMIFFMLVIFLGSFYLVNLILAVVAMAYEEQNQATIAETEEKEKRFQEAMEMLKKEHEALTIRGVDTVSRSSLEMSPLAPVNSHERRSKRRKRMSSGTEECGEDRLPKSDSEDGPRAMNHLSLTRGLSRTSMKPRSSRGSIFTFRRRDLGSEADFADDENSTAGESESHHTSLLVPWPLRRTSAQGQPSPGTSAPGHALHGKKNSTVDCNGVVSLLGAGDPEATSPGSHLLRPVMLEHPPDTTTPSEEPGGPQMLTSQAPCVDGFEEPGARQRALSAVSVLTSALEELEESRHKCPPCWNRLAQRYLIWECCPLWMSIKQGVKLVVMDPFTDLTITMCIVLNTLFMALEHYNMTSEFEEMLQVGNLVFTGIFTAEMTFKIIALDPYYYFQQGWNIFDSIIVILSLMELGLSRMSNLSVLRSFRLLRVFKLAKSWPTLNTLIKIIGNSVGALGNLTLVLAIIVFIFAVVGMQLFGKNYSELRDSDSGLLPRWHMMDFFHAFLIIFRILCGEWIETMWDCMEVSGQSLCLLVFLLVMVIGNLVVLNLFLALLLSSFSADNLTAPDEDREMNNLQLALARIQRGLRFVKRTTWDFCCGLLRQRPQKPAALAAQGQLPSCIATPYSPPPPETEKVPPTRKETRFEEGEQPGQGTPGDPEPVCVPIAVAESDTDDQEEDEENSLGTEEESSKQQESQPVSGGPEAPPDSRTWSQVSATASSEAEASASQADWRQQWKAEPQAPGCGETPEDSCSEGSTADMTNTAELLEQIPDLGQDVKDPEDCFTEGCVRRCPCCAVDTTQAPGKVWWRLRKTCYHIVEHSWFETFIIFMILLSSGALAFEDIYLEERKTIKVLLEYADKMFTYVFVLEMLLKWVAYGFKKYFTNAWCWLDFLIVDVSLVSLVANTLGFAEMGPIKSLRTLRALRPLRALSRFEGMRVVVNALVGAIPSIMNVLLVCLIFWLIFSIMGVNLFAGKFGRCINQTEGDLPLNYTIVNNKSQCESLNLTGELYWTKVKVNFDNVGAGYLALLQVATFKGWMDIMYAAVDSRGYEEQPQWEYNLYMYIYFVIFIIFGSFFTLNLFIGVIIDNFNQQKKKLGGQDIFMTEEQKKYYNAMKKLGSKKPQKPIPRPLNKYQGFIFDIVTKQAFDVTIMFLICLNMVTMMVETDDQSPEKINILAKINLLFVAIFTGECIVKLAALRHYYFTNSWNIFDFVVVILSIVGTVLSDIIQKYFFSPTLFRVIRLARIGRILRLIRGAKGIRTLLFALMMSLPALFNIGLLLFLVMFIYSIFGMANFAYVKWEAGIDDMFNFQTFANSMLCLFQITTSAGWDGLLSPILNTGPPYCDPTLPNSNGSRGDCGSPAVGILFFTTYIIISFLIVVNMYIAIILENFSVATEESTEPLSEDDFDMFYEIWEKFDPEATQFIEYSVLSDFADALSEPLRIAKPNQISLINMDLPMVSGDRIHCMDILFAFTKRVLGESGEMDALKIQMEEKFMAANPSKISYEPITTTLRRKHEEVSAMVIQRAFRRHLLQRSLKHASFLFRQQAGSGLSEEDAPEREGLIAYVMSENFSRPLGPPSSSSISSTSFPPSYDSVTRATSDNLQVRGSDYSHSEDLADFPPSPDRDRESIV
attribute.measured: IC50

Prompt: // lookup IC50 for O=C(c1ccccc1F)N1CCN(Cc2c(-c3ccc(Br)cc3)nc3ccccn23)CC1 [BAY 1000493]
Completion: > 30 µM

----------
Target: UniProtKB O75762
Sequence (O75762 whole entry): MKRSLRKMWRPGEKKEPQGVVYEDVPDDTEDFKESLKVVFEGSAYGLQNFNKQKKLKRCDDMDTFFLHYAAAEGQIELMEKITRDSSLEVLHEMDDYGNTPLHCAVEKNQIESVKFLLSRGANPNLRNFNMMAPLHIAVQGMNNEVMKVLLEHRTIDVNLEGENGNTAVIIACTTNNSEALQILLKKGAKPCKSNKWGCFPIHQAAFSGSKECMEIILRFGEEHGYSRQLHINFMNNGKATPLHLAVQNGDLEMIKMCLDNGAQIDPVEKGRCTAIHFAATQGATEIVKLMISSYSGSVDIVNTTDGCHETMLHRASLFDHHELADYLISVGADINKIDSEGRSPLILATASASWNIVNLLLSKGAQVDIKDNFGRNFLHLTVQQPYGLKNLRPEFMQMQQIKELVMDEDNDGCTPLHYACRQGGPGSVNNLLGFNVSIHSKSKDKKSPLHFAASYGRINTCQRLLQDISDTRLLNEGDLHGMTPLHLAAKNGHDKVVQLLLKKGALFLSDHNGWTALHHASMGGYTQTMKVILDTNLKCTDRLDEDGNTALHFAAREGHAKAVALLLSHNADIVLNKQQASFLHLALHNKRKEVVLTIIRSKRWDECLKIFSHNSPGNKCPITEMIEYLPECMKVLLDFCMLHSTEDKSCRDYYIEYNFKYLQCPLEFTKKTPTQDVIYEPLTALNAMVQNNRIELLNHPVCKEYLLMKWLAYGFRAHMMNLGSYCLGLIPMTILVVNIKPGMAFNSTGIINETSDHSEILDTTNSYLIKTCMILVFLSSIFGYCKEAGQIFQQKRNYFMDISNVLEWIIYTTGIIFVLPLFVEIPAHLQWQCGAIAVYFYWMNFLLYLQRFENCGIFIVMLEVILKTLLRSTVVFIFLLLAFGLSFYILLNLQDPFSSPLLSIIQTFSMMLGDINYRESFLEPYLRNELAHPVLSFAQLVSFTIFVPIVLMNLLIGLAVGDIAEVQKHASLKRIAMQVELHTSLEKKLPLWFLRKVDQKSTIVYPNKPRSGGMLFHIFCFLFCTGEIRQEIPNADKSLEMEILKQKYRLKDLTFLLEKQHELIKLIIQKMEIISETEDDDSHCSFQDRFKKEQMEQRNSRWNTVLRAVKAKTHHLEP
Assay: cell-based
pIC50: −log10 of the molar value.
attribute.measured: pIC50

Prompt: // lookup pIC50 for `O=C(c1ccccc1F)N1CCN(Cc2c(-c3ccc(Br)cc3)nc3ccccn23)CC1`
Completion: < 4.52

----------
Molecular target: Kv1.5 (Homo sapiens, UniProt P22460)
Sequence (P22460 whole entry): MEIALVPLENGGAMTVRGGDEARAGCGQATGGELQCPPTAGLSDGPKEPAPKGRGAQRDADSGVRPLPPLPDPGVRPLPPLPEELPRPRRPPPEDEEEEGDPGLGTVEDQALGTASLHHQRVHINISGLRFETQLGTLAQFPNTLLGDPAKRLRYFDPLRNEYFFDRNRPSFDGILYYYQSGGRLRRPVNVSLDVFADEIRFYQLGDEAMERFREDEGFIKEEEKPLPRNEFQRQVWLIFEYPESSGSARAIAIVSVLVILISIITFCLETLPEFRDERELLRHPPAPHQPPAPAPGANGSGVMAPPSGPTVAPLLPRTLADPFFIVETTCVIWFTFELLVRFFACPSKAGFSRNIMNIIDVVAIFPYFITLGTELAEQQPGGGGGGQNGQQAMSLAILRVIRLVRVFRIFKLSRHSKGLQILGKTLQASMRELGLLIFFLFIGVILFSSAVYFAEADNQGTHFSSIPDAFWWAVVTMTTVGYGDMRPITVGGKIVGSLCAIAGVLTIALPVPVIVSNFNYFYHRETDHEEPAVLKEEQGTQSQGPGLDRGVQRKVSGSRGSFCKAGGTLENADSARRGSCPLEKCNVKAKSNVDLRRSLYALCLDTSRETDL
attribute.measured: IC50 (µM)
Numbers only, in µM.

Prompt: // lookup IC50 for `O=C(c1ccccc1F)N1CCN(Cc2c(-c3ccc(Br)cc3)nc3ccccn23)CC1`
Completion: 19
